- TEST TARGET: T1, human TROP2 protein (Sino Biological, #10428-H08H) (human, UniProt P09758 27-274)
- T1 construct: bought protein; also called human Trop2 protein antigen (His tag); not shown: His tag
- T1 sequence (looked up): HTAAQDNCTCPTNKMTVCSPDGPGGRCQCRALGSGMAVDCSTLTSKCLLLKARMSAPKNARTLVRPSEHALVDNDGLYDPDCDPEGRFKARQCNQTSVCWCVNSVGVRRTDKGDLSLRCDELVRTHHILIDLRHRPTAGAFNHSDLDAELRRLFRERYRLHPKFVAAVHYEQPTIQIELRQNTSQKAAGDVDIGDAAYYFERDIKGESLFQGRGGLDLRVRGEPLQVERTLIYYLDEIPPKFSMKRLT
- TEST NAME: BLI epitope binning (Octet), biotinylated human Trop2 on SA sensor; row = primary antibody; competitor (secondary antibody, column): PR001165
ENDPOINT NAME: Inhibition rate (%)
Numbers only, in %.

Could you tell me which Inhibition rate (%) is on file for PR001166 (antibody, human IgG1, kappa, V domains shown, fully human IgG1/kappa; also called antibody No. (27)) VH: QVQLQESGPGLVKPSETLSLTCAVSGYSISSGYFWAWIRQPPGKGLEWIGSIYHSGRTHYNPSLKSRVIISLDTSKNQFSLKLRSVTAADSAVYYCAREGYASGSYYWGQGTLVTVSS VL: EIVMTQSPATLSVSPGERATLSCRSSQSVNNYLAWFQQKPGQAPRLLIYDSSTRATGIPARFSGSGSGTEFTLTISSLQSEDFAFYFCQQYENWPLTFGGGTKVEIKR ?
18.5
